Tested on: MV4-11 cell line (myelomonocytic leukemia)
Settings: MV4-11 cells, 24 h, Alamar blue; MMB-TDZD analogs (Table 2)
MEASURED QUANTITY: LD50, Alamar blue (μM) 24 h (µM)
Give bare numbers, in µM.

Known LD50, Alamar blue (μM) 24 h results, listed for orientation:
- C=C1C(=O)O[C@H]2[C@H]1CC/C(COC(=O)NCc1ccc(Cn3c(=O)sn(CCCI)c3=O)cc1)=C\CC[C@@]1(C)O[C@@H]21: 0.30
- C=C1C(=O)O[C@H]2[C@H]1CC/C(COC(=O)NCc1ccc(Cn3c(=O)sn(CCCC)c3=O)cc1)=C\CC[C@@]1(C)O[C@@H]21: 0.30
- C=C1C(=O)O[C@H]2[C@H]1CC/C(COC(=O)NCc1ccc(Cn3c(=O)sn(-c4ccc(Cl)cc4)c3=O)cc1)=C\CC[C@@]1(C)O[C@@H]21: 0.63
- C=C1C(=O)O[C@H]2[C@H]1CC/C(COC(=O)NCc1ccc(Cn3c(=O)sn(-c4ccccc4)c3=O)cc1)=C\CC[C@@]1(C)O[C@@H]21: 2.02
- C=C1C(=O)O[C@H]2[C@H]1CC/C(COC(=O)NCc1ccc(Cn3c(=O)sn(-c4ccc(C#N)cc4)c3=O)cc1)=C\CC[C@@]1(C)O[C@@H]21: 0.75
- C=C1C(=O)O[C@H]2[C@H]1CC/C(COC(=O)NCc1ccc(Cn3c(=O)sn(CCCC#N)c3=O)cc1)=C\CC[C@@]1(C)O[C@@H]21: 0.45
- C=C1C(=O)O[C@H]2[C@H]1CC/C(COC(=O)NCc1ccc(Cn3c(=O)sn(CCCl)c3=O)cc1)=C\CC[C@@]1(C)O[C@@H]21: 1.50
- Cn1sc(=O)n(Cc2ccccc2)c1=O [TDZD-8, reference compound]: 4.5
- C=C1C(=O)O[C@H]2[C@H]1CC/C(COC(=O)NCc1ccc(Cn3c(=O)sn(CCCCC)c3=O)cc1)=C\CC[C@@]1(C)O[C@@H]21: 0.8
- C=C1C(=O)O[C@H]2[C@H]1CC/C(COC(=O)NCc1ccc(Cn3c(=O)sn(CCI)c3=O)cc1)=C\CC[C@@]1(C)O[C@@H]21: 1.0

[Q] Dear colleague, I am looking for the recorded LD50, Alamar blue (μM) 24 h of the following molecule: `C=C1C(=O)O[C@H]2[C@H]1CC/C(COC(=O)NCc1ccc(Cn3c(=O)sn(-c4ccc(OC)cc4)c3=O)cc1)=C\CC[C@@]1(C)O[C@@H]21`
[A] 1.20

###

Test system: MDA-MB-231/ATCC
Assay: NCI-60 growth inhibition: MDA-MB-231/ATCC (Breast Cancer)
Format: cell-based, human
Details: Homo sapiens
MEASURED QUANTITY: GI50 (nM)
Numbers only, in nM.

Examples with answers:
• C=C1C(=O)O[C@H]2[C@H]1CC/C(COC(=O)NCc1ccc(Cn3c(=O)sn(CCI)c3=O)cc1)=C\CC[C@@]1(C)O[C@@H]21 = 1770
• C=C1C(=O)O[C@H]2[C@H]1CC/C(COC(=O)NCc1ccc(Cn3c(=O)sn(CCCC)c3=O)cc1)=C\CC[C@@]1(C)O[C@@H]21 = 1800

Need GI50 for each of these compounds.
1. C=C1C(=O)O[C@H]2[C@H]1CC/C(COC(=O)NCc1ccc(Cn3c(=O)sn(-c4ccccc4)c3=O)cc1)=C\CC[C@@]1(C)O[C@@H]21
2. C=C1C(=O)O[C@H]2[C@H]1CC/C(COC(=O)NCc1ccc(Cn3c(=O)sn(CCCI)c3=O)cc1)=C\CC[C@@]1(C)O[C@@H]21
3. C=C1C(=O)O[C@H]2[C@H]1CC/C(COC(=O)NCc1ccc(Cn3c(=O)sn(-c4ccc(OC)cc4)c3=O)cc1)=C\CC[C@@]1(C)O[C@@H]21

[A]
[1710, 1750, 1970]

###

Tested on: OVCAR-5
Assay: NCI-60 growth inhibition: OVCAR-5 (Ovarian Cancer)
Type: cell-based, human
Conditions: Homo sapiens
MEASURED QUANTITY: GI50 (nM)
One number for each entry, in nM.

Here are 3 molecules together with their reported answers.
• C=C1C(=O)O[C@H]2[C@H]1CC/C(COC(=O)NCc1ccc(Cn3c(=O)sn(-c4ccccc4)c3=O)cc1)=C\CC[C@@]1(C)O[C@@H]21 = 2510
• C=C1C(=O)O[C@H]2[C@H]1CC/C(COC(=O)NCc1ccc(Cn3c(=O)sn(-c4ccc(OC)cc4)c3=O)cc1)=C\CC[C@@]1(C)O[C@@H]21 = 2060
• C=C1C(=O)O[C@H]2[C@H]1CC/C(COC(=O)NCc1ccc(Cn3c(=O)sn(CCCI)c3=O)cc1)=C\CC[C@@]1(C)O[C@@H]21 = 1850

Value sought for every listed molecule: GI50.
1. C=C1C(=O)O[C@H]2[C@H]1CC/C(COC(=O)NCc1ccc(Cn3c(=O)sn(CCCC)c3=O)cc1)=C\CC[C@@]1(C)O[C@@H]21
2. C=C1C(=O)O[C@H]2[C@H]1CC/C(COC(=O)NCc1ccc(Cn3c(=O)sn(CCI)c3=O)cc1)=C\CC[C@@]1(C)O[C@@H]21

[A]
[1930, 3280]

###

Test system: HT29
Assay: NCI-60 growth inhibition: HT29 (Colon Cancer)
Format: cell-based, human
Settings: Homo sapiens, HT-29
MEASURED QUANTITY: GI50 (nM)
Numbers only, in nM.

• C=C1C(=O)O[C@H]2[C@H]1CC/C(COC(=O)NCc1ccc(Cn3c(=O)sn(-c4ccccc4)c3=O)cc1)=C\CC[C@@]1(C)O[C@@H]21 = 2150

Please state, for each entry, its recorded GI50.
1. C=C1C(=O)O[C@H]2[C@H]1CC/C(COC(=O)NCc1ccc(Cn3c(=O)sn(CCI)c3=O)cc1)=C\CC[C@@]1(C)O[C@@H]21
2. C=C1C(=O)O[C@H]2[C@H]1CC/C(COC(=O)NCc1ccc(Cn3c(=O)sn(CCCC)c3=O)cc1)=C\CC[C@@]1(C)O[C@@H]21
3. C=C1C(=O)O[C@H]2[C@H]1CC/C(COC(=O)NCc1ccc(Cn3c(=O)sn(-c4ccc(OC)cc4)c3=O)cc1)=C\CC[C@@]1(C)O[C@@H]21
4. C=C1C(=O)O[C@H]2[C@H]1CC/C(COC(=O)NCc1ccc(Cn3c(=O)sn(CCCI)c3=O)cc1)=C\CC[C@@]1(C)O[C@@H]21

[A]
2100
2080
1960
1740

###

System: OVCAR-4
Assay: NCI-60 growth inhibition: OVCAR-4 (Ovarian Cancer)
Format: cell-based, human
Conditions: Homo sapiens
# Yes = GI50 below 2 µM (exclusive); No = GI50 at/above 2 µM

Field: example entries. Status: answers known.
- C=C1C(=O)O[C@H]2[C@H]1CC/C(COC(=O)NCc1ccc(Cn3c(=O)sn(-c4ccccc4)c3=O)cc1)=C\CC[C@@]1(C)O[C@@H]21 [BSK-197]: No
- C=C1C(=O)O[C@H]2[C@H]1CC/C(COC(=O)NCc1ccc(Cn3c(=O)sn(-c4ccc(OC)cc4)c3=O)cc1)=C\CC[C@@]1(C)O[C@@H]21 [BSK-271]: Yes
- C=C1C(=O)O[C@H]2[C@H]1CC/C(COC(=O)NCc1ccc(Cn3c(=O)sn(CCCI)c3=O)cc1)=C\CC[C@@]1(C)O[C@@H]21 [BSK-259]: Yes

From here, focus on the item given below.
[Q] Item C=C1C(=O)O[C@H]2[C@H]1CC/C(COC(=O)NCc1ccc(Cn3c(=O)sn(CCCC)c3=O)cc1)=C\CC[C@@]1(C)O[C@@H]21 [BSK-230] : GI50 beneath 2 µM, strictly?
[A] Yes

###

System: COLO 205
Assay: NCI-60 growth inhibition: COLO 205 (Colon Cancer)
Format: cell-based, human
Settings: Homo sapiens
Could you please report measured GI50 for the items listed next?
Answers are plain numbers, in nM.

Study these solved cases before continuing.
- C=C1C(=O)O[C@H]2[C@H]1CC/C(COC(=O)NCc1ccc(Cn3c(=O)sn(-c4ccccc4)c3=O)cc1)=C\CC[C@@]1(C)O[C@@H]21: 1770
- C=C1C(=O)O[C@H]2[C@H]1CC/C(COC(=O)NCc1ccc(Cn3c(=O)sn(CCCI)c3=O)cc1)=C\CC[C@@]1(C)O[C@@H]21: 1950
- C=C1C(=O)O[C@H]2[C@H]1CC/C(COC(=O)NCc1ccc(Cn3c(=O)sn(-c4ccc(OC)cc4)c3=O)cc1)=C\CC[C@@]1(C)O[C@@H]21: 1850
- C=C1C(=O)O[C@H]2[C@H]1CC/C(COC(=O)NCc1ccc(Cn3c(=O)sn(CCI)c3=O)cc1)=C\CC[C@@]1(C)O[C@@H]21: 1860

Now look at this entry.
[Q] I am curious: what GI50 value has been reported for `C=C1C(=O)O[C@H]2[C@H]1CC/C(COC(=O)NCc1ccc(Cn3c(=O)sn(CCCC)c3=O)cc1)=C\CC[C@@]1(C)O[C@@H]21` ?
[A] 2000
